The entries below come with measured Mouse Liver microsome stability (reported in % remaining) values attached.
- Test name: Liver microsomal stability, mouse
- Type: in vitro ADME
- Condition set: 37° C., 4 μM compound, 30 minutes
Give the quantity in % remaining, number only.

Answered cases to consult:
INSERT INTO results (compound, measured) VALUES
  ('C#Cc1ccc2c(c1)C(c1ccccc1)=NCc1c(-c3cnco3)ncn1-2 [KRM-II-82]', 73),
  ('C#Cc1ccc2c(c1)C(c1ccccn1)=NCc1c(-c3cnco3)ncn1-2 [KRM-II-81]', 90),
  ('Fc1ccccc1C1=NCc2c(-c3cnco3)ncn2-c2ccc(Br)cc21 [SH-I-085]', 67);

# Mouse Liver microsome stability (reported in % remaining) lookup, item C#Cc1ccc2c(c1)C(c1ccccc1F)=NCc1c(-c3cnco3)ncn1-2 [KRM-II-18B] 79

Fill in: Mouse Liver microsome stability (reported in % remaining) of C#Cc1ccc2c(c1)C(c1ccccn1)=NCc1c(C(=O)OCC)ncn1-2 [HZ-166] is ___ 54

###

- Test name: Pharmacokinetics and brain concentration after 10 mg/kg P.O. dose, rats
- Format: in vivo
- Condition set: rat, brain (unbound); 10 mg/kg oral dose, one hour after dose; rats stated for KRM-II-81; read-out: brain unbound concentration ([brain]u)
Endpoint: concentration at 1 h (ng/g)
Write the number in ng/g without appending the unit.

Consider the molecule shown here: `C#Cc1ccc2c(c1)C(c1ccccn1)=NCc1c(-c3cnco3)ncn1-2` What is its recorded concentration at 1 h? 644

###

- Test name: Pharmacokinetics and brain concentration after 10 mg/kg P.O. dose, rats
- Type: in vivo
- Condition set: rat, blood, po; 10 mg/kg P.O., rats; read-out: Cmax (highest concentration found in blood)
- Protocol: In a 10 mg/kg oral dose in rats, a concentration of 644 ng/g of KRM-II-81 was found unbound in the brain, indicating a great pharmacokinetic-profile. Although these are different species, the numbers can still be compared.
Endpoint: Cmax (ng/mL)
Field format: number, assumed ng/mL, no unit text.

Report Cmax for `C#Cc1ccc2c(c1)C(c1ccccn1)=NCc1c(-c3cnco3)ncn1-2` please. 1750

###

- Test name: Pharmacokinetics after 10 mg/kg P.O. dose, mice
- Format: in vivo
- Condition set: mouse, blood, po
Endpoint: Tmax (h)
Numeric answer only, unit h assumed.

Recorded Tmax for C#Cc1ccc2c(c1)C(c1ccccn1)=NCc1c(C(=O)OCC)ncn1-2 [HZ-166] , please? 5.58

###

- Test name: Single-dose pharmacokinetics and brain concentrations, IV and IP, rats
- Format: in vivo, Sprague-Dawley rats
- Condition set: Sprague-Dawley, plasma; 1 mg/kg IV dose in rat; read-out: mean T ½ (converted)
- Experimental: The single-dose pharmacokinetics were determined in femoral artery/vein cannulated Sprague-Dawley rats. The rats received a 1 mg/kg intravenous and 10 mg/kg oral gavage dose of compound. Blood samples were collected at 0.08 (IV only), 0.25, 0.5, 1, 2, 4, 8, 12, and 24 hours after initiation of compound administration. Plasma was obtained via centrifugation. Plasma samples were then analyzed by LC-MS, and pharmacokinetic parameters calculated using Watson (version 7.4; Thermo Fisher Scientific). […]
Endpoint: half-life (h)
The reply should be a number in h, with the unit left off.

Give its half-life value. Item: C#Cc1ccc2c(c1)C(c1ccccn1)=NCc1c(-c3cnco3)ncn1-2 [KRM-II-81] 1.4
